target or test system: HK1 Hexokinase-1 (Homo sapiens, UniProt P19367)
Construct: isoTOP-ABPP experiments performed in cell lysates (in vitro); endogenous in cells; host or cells: soluble proteome of human cancer cell lines (MDA-MB-231; Ramos and Jurkat also prepared)
Sequence (P19367 1-917): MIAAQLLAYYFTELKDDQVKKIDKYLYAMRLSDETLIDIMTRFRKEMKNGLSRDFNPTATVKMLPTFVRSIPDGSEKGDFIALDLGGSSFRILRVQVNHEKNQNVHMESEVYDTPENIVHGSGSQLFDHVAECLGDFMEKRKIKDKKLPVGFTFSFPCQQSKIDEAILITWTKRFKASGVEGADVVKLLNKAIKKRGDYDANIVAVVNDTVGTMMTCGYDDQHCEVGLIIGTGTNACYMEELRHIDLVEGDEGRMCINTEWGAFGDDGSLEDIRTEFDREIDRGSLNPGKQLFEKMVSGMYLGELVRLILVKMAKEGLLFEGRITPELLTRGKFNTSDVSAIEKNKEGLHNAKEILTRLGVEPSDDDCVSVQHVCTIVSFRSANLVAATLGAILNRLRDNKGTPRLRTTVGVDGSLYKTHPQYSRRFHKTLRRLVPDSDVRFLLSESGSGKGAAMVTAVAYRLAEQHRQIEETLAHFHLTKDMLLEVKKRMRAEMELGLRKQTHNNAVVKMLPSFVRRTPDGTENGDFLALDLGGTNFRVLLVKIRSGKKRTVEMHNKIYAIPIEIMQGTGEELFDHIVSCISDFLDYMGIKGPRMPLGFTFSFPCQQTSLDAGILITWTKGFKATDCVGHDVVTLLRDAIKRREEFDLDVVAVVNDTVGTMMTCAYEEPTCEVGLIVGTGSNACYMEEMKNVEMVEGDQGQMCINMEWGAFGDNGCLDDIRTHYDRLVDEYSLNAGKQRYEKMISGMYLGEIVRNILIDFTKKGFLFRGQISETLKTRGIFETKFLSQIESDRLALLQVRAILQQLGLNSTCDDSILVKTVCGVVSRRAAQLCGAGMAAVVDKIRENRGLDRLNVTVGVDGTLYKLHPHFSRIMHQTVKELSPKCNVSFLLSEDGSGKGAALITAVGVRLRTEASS
assay explanation: competitive isoTOP-ABPP
Format: binding
conditions used: P19367_K510; 50 uM, 231 sol, in vitro
Recorded measurements of R value (DMSO/fragment) for probe 1 labeling, one per entry
metric name: R value (DMSO/fragment) for probe 1 labeling

molecule=Cn1cc(CC(=O)Oc2c(F)c(F)c(F)c(F)c2F)c2ccccc21 data_value=1.3
molecule="O=C(Oc1c(F)c(F)c(F)c(F)c1F)C(c1ccccc1)c1ccccc1 [fragment 20, Pentafluorophenyl 2,2-diphenylacetate]" data_value=0.9
molecule=O=C(Oc1c(F)c(F)c(F)c(F)c1F)c1cc(C(F)(F)F)cc(C(F)(F)F)c1 data_value=1.0
